Reference source for all entries: patent US11230581B2

Target: HLA-A*02:01 (Homo sapiens, UniProt P04439, D140Y/D185E/D98H/E176V/E277Q/G131W/G231S/I119V/I121R/I166T/I218V/L300P/L318F/N151K/N90K/P208A/P217A/Q86G/Q94H/R138H/R169H/T345S)
Test: MHC binding assay (UV-ligand exchange, β2m ELISA, peptide exchange yield)
Conditions: binding of HLA-class I restricted peptides to HLA-A*02:01, UV-ligand exchange
MEASUREMENT NAME: Peptide exchange (MHC class I binding score, peptide exchange yield)

substance="209 (KLIESKHEV; listed as Homo sapiens) [compound 209]" result="“++” (≥20% = ++)"
substance="308 (SQYSGQLHEV; listed as Homo sapiens) [compound 308]" result="“+++” (≥50 = +++)"
substance="295 (VLDRESPNV; listed as Homo sapiens) [compound 295]" result="“+++” (≥50 = +++)"
substance="380 (TLIEDEIATI; listed as Homo sapiens) [compound 380]" result="“++” (≥20% = ++)"
substance="99 (ALVSKGLATV; listed as Homo sapiens) [compound 99]" result="“++” (≥20% = ++)"
substance="463 (SLVESHLSDQLTL; listed as Homo sapiens) [compound 463]" result="“+++” (≥50 = +++)"
substance="136 (YLADPSNLFVV; listed as Homo sapiens) [compound 136]" result="“+++” (≥50 = +++)"
substance="142 (FLFATPVFI; listed as Homo sapiens) [compound 142]" result="“+++” (≥50 = +++)"
substance="399 (YLFEPLYHV; listed as Homo sapiens) [compound 399]" result="“+++” (≥50 = +++)"
substance="258 (ELAERVPAI; listed as Homo sapiens) [compound 258]" result="“++” (≥20% = ++)"

---

Target: HLA-A*02:01 (Homo sapiens, UniProt P04439, D140Y/D185E/D98H/E176V/E277Q/G131W/G231S/I119V/I121R/I166T/I218V/L300P/L318F/N151K/N90K/P208A/P217A/Q86G/Q94H/R138H/R169H/T345S)
Test: MHC binding assay (UV-ligand exchange, β2m ELISA, peptide exchange yield)
Conditions: binding of HLA-class I restricted peptides to HLA-A*02:01, UV-ligand exchange
MEASUREMENT NAME: Peptide exchange (MHC class I binding score, peptide exchange yield)

substance="378 (ALGYFVPYV; listed as Homo sapiens) [compound 378]" result="“+++” (≥50 = +++)"
substance="187 (RQISIRGIVGV; listed as Homo sapiens) [compound 187]" result="“+++” (≥50 = +++)"
substance="253 (GLDAATATV; listed as Homo sapiens) [compound 253]" result="“++” (≥20% = ++)"
substance="355 (SIQQSIERLLV; listed as Homo sapiens) [compound 355]" result="“++” (≥20% = ++)"
substance="249 (LLDGFLVNV; listed as Homo sapiens) [compound 249]" result="“+++” (≥50 = +++)"
substance="578 (FLDPGGPMMKL; listed as Homo sapiens) [compound 578]" result="“+++” (≥50 = +++)"
substance="485 (NVPDSFNEV; listed as Homo sapiens) [compound 485]" result="“+++” (≥50 = +++)"
substance="507 (KLIDDQDISISL; listed as Homo sapiens) [compound 507]" result="“+++” (≥50 = +++)"
substance="342 (HIYDKVMTV; listed as Homo sapiens) [compound 342]" result="“+++” (≥50 = +++)"
substance="493 (GLLGEKTQDLIGV; listed as Homo sapiens) [compound 493]" result="“+++” (≥50 = +++)"
substance="159 (GLVGNPLPSV; listed as Homo sapiens) [compound 159]" result="“++++” (≥75% = ++++)"
substance="227 (ALMNTLLYL; listed as Homo sapiens) [compound 227]" result="“++” (≥20% = ++)"
substance="584 (ALAEVAAMENV; listed as Homo sapiens) [compound 584]" result="“+++” (≥50 = +++)"
substance="264 (SLQEQLHSV; listed as Homo sapiens) [compound 264]" result="“+++” (≥50 = +++)"
substance="437 (SMAPGLVIQAV; listed as Homo sapiens) [compound 437]" result="“+++” (≥50 = +++)"
substance="179 (KVLNELYTV; listed as Homo sapiens) [compound 179]" result="“+++” (≥50 = +++)"
substance="515 (LLQELVLFL; listed as Homo sapiens) [compound 515]" result="“+++” (≥50 = +++)"
substance="348 (ILLDVKTRL; listed as Homo sapiens) [compound 348]" result="“++++” (≥75% = ++++)"

---

Biological target: HLA-A*02:01 (Homo sapiens, UniProt P04439, D140Y/D185E/D98H/E176V/E277Q/G131W/G231S/I119V/I121R/I166T/I218V/L300P/L318F/N151K/N90K/P208A/P217A/Q86G/Q94H/R138H/R169H/T345S)
Assay: MHC binding assay (UV-ligand exchange, β2m ELISA, peptide exchange yield)
Settings: binding of HLA-class I restricted peptides to HLA-A*02:01, UV-ligand exchange
MEASUREMENT NAME: Peptide exchange (MHC class I binding score, peptide exchange yield)

substance="236 (GLLEAKVSL; listed as Homo sapiens) [compound 236]" result="“+++” (≥50 = +++)"
substance="36 (YVLEDLEVTV; listed as Homo sapiens) [compound 36]" result="“++” (≥20% = ++)"
substance="38 (FLLEDDIHVS; listed as Homo sapiens) [compound 38]" result="“+++” (≥50 = +++)"
substance="570 (ALANQIPTV; listed as Homo sapiens) [compound 570]" result="“++” (≥20% = ++)"
substance="35 (KINDTIYEV; listed as Homo sapiens) [compound 35]" result="“+++” (≥50 = +++)"

---

Target: HLA-A*02:01 (Homo sapiens, UniProt P04439, D140Y/D185E/D98H/E176V/E277Q/G131W/G231S/I119V/I121R/I166T/I218V/L300P/L318F/N151K/N90K/P208A/P217A/Q86G/Q94H/R138H/R169H/T345S)
Assay: MHC binding assay (UV-ligand exchange, β2m ELISA, peptide exchange yield)
Conditions: binding of HLA-class I restricted peptides to HLA-A*02:01, UV-ligand exchange
MEASUREMENT NAME: Peptide exchange (MHC class I binding score, peptide exchange yield)

substance="477 (ALLPASGQIAL; listed as Homo sapiens) [compound 477]" result="“+++” (≥50 = +++)"
substance="600 (ALAAPDIVPAL; listed as Homo sapiens) [compound 600]" result="“+++” (≥50 = +++)"
substance="526 (RLAEVGQYEQV; listed as Homo sapiens) [compound 526]" result="“++” (≥20% = ++)"
substance="205 (SLYPGTETMGL; listed as Homo sapiens) [compound 205]" result="“+++” (≥50 = +++)"
substance="451 (LLLLDTVTMQV; listed as Homo sapiens) [compound 451]" result="“++” (≥20% = ++)"
